Test system: ACHN
Experiment: NCI tumour cell line growth inhibition, 48 h
The campaign covered roughly 57,000 sequences. About 3,700 (6.5%) were called active. The list is a sample of the results. Measured potencies and affinities stand elsewhere.
endpoint: GI50 (nM)
Write the number in nM without appending the unit.

**Query** Quick one: give measured GI50 for mu-(1,7-nanodiamine-N,N')bis-(cis-aminedichloroplatimum (II)), CHEMBL2146215
**Result** 27800

**Query** Identify measured GI50 associated with [Bis(aminomethyl)dimethylsilane]dichloroplatinum (II), CHEMBL2146201
**Result** 12600

**Query** Return the recorded GI50 value; entry: [Bis(aminomethyl)ethylmethylsilane]tetrachloroplatinum(IV), CHEMBL2146192
**Result** 2670

**Query** For the substance [Bis(aminomethyl)diethylsilane]tetrachloroplatinum(IV), CHEMBL2146203 , report GI50.
**Result** 2990

**Query** Indicate its recorded GI50; the substance in question is [Bis(aminomethyl)pentamethylenesilane]dichloropaltinum(II), CHEMBL2146202
**Result** 1630

**Query** Return the recorded GI50 value; entry: CISPLATIN, CHEMBL11359
**Result** 1220

# credit: ChEMBL document CHEMBL1201862
